Where do these numbers come from? They come from patent US20250011468A1.

Biological target: human plasma-derived FIXa (Haematologic Technologies Inc) (human, UniProt P00740 47-191; P00740 227-461)
Sequence (P00740 47-191, chain 1 of 2): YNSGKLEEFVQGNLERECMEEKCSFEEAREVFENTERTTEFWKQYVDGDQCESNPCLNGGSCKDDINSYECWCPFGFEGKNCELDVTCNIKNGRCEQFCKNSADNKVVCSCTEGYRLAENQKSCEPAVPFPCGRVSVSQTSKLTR
Sequence (P00740 227-461, chain 2 of 2): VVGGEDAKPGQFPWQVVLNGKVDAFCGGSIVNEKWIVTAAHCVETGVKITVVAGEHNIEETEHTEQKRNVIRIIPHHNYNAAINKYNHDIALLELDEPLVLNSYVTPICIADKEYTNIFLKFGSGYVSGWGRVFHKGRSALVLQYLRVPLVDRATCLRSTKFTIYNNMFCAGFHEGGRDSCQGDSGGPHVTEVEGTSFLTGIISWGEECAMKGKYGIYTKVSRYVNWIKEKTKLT
Assay: cell-based or functional assay

binder: mAb1-4861 (antibody, V domains shown) VH: EVQLVESGGGLVQPGRSLKLSCAASGFTFDDYAMHWVRQVPGKGLEWVSGISWNGDNIGYVDSVKGRFTISRDNAKNSLYLQLNSLRAEDTALYYCVKSYGSGSFYNAFDSWGQGTLVTVSS VL: DIQMTQSPSTLSASAGDRVTITCRASQSISSWLAWYQQKPGKAPKFLIYKASRLERGVPSRFSGSGSGTEFSLTISSLQPDDFATYYCLEYSSYIRTFGQGTKVEIK
FXa generation rate at 6.3 nM mAb (pM/min): 415

binder: mAb1-4763 (antibody, V domains shown) VH: EVQLVESGGGLVQPGRSLRLSCAASGFTFGDYAMHWVRQAPGKGLEWVSGISWNSGSIGYAKSVKGRFTISRDNAKNSLYLQMNSLRAEDTALYYCAKGQYDEDAGMDVWGQGTTVTVSS VL: DIQMTQSPSSLSASVGDRVTITCRASQWISSYLNWYQQKPGKAPKLLIYAASSLPSGVPSRFSGSGSGTDFTLTISSLQPEDFATYYCQQGYPTWTFGGGTKVEIK
FXa generation rate at 6.3 nM mAb (pM/min): 390

binder: mAb1-4857 (antibody, V domains shown) VH: EVQLVESGGGLVQPGRSLKLSCAASGFTFDDYAMHWVRQVPGKGLEWVSGISWRGDIIGYVDSVKGRFTISRDNAKNSLYLQLNSLRAEDTALYYCVKSYGSGSFYNAFDSWGQGTLVTVSS VL: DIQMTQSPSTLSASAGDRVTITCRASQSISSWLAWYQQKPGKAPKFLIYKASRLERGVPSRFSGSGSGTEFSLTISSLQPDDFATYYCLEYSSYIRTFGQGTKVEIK
FXa generation rate at 6.3 nM mAb (pM/min): 491
